- Tested on: mAb 2
- measurement_protocol: Alanine scan ELISA and mAb 2 titration against peptides
- Type: binding, murine
- protocol_conditions: titration of purified mAb 2 against peptides; 1 = least binding
- Procedure: Variations of peptides O28 and O29, where each amino acid residue was sequentially substituted for an alanine residue, were synthesised. Streptavidin-coated plates (Pierce/Thermo Scientific, #15520) were blocked with 3% BSA/PBS at room temperature. […] Colour change was monitored by eye and the reaction was stopped by adding 100 mM sulphuric acid. Absorbance was read at 450 nm in a microplate reader (SPECTRAmax PLUS^384, Molecular Device, U.S.A.). […]
Classify by Increase mAb 2 binding in ascending order. Ranges: one (below 6), two (6 to below 9), three (9 or more)

{"polymer_sequence": "CIFSPQAEEPSQCPD [P7, alanine-substituted variant of peptide O28]", "tested_target": "mAb 2", "assigned_label": "two"}
{"polymer_sequence": "AIEEPSQCPDCVVSA [P17, alanine-substituted variant of peptide O29]", "tested_target": "mAb 2", "assigned_label": "one"}
{"polymer_sequence": "CIFSPQIEAPSQCPD [P9, alanine-substituted variant of peptide O28]", "tested_target": "mAb 2", "assigned_label": "one"}
{"polymer_sequence": "CIFSPQIEEPSQCPA [P15, alanine-substituted variant of peptide O28]", "tested_target": "mAb 2", "assigned_label": "three"}
{"polymer_sequence": "QIEEPSQCADCVVSA [P25, alanine-substituted variant of peptide O29]", "tested_target": "mAb 2", "assigned_label": "one"}
{"polymer_sequence": "CIFSPQIEEASQCPD [P10, alanine-substituted variant of peptide O28]", "tested_target": "mAb 2", "assigned_label": "two"}
{"polymer_sequence": "CIFSPQIEEPSQCPD [O28, pepscan peptide of human c-Met α-chain]", "tested_target": "mAb 2", "assigned_label": "three"}
{"polymer_sequence": "QIEEPSQCPDCVVSA [O29, pepscan peptide of human c-Met α-chain]", "tested_target": "mAb 2", "assigned_label": "three"}
